target: TLR9 (Homo sapiens); experiment: TLR9 antagonist assay, HEK-293 transfectants with alkaline phosphatase reporter gene (Invivogen panel); conditions: titration, TLR9-transfected cell line, naltrexone diluted in PBS or H2O (FIG. 2); read-out: IC50 for inhibition of TLR9
Sequence (Q9NR96 26-1032, species assumed): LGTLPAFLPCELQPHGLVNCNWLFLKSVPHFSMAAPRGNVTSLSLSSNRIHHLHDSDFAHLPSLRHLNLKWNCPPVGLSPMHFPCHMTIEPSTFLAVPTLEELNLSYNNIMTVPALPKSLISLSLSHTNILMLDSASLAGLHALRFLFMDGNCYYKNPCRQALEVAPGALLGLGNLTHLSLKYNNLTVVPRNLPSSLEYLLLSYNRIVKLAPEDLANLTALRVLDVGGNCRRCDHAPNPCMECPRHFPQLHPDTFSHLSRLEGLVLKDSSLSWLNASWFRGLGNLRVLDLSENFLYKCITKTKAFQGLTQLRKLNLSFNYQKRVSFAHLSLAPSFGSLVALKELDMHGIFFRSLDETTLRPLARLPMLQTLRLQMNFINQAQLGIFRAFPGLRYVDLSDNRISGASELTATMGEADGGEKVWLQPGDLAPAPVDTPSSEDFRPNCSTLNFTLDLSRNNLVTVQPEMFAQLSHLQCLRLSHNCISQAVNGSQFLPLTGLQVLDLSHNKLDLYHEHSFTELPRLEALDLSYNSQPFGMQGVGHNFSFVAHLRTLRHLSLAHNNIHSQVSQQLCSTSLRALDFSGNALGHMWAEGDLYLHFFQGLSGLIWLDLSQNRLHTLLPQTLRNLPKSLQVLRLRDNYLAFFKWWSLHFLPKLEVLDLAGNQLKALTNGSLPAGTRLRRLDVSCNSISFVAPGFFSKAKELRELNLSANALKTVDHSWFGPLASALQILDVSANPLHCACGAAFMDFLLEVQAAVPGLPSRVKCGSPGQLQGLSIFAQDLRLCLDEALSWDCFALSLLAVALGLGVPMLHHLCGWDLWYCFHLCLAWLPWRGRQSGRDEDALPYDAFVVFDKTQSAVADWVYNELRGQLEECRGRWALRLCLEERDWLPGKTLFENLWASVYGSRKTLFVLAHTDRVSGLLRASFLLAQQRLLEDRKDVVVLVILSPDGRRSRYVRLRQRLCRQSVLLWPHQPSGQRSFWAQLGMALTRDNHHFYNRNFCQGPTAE
measurementKind: IC50

Report measured IC50; entry is O=C1CC[C@@]2(O)[C@H]3Cc4ccc(O)c5c4[C@@]2(CCN3CC2CC2)[C@H]1O5 [LDN] ~50 µM
